B1: TCEB3B (parent)
chain: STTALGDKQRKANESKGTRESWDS

Variants of: B1
ASSAY_OVERVIEW: protein stability index of a GFP-peptide fusion (GPS, HEK-293T) (PSI 1-6); higher = more stable;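 note: lentivirally expressed fusions sorted by FACS into six bins by GFP to DsRed ratio, PSI derived from sequencing read proportions per bin multiplied by bin number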
ASSAY_CONTEXT: c terminus: a fixed tail appended
# if value of protein stability index reaches 4, tag satisfied; if it stays below, tag not satisfied

1. STWALGDKQRKANESKGTRESWDS = not satisfied
2. STTALGDKQRKANESKGTRESTDS = satisfied
3. STTALGDKQRKANESKGTRKSWDS = satisfied
4. STTALGDKLRKANESKGTRESWDS = not satisfied
5. STTALGDKQRTANESKGTRESWDS = satisfied
6. STTALGDKQRKANESKGTRETWDS = not satisfied
7. STTALGDKQRKANESKGTRESWDP = satisfied
8. STTALGDKQRKANESKGTREYWDS = satisfied
9. SHTALGDKQRKANESKGTRESWDS = not satisfied
